# Tested on: Pectobacterium parmentieri SCC3193
# experimental.protocol: DuctApe activity index (growth/respiration on compound as sole nutrient source, blank-subtracted) (activity index (0-3)); higher = stronger utilization of the compound, active = 3 or more
# settings: nutrient role (plate category): nitrogen
Items are presented alongside their recorded DuctApe activity index.

Nc1[nH]cnc2ncnc1-2: 0 (inactive)
NC(=O)C[C@H](N)C(=O)O: 2 (inactive)
NCC(=O)O: 0 (inactive)

Notebook entry, Pectobacterium parmentieri SCC3193 assay: DuctApe activity index of Oc1nc(O)c2nc(O)[nH]c2n1 = ?
0 (inactive)

Notebook entry, Pectobacterium parmentieri SCC3193 assay: DuctApe activity index of Nc1nc2[nH]cnc2c(=O)[nH]1 = ?
0 (inactive)

Notebook entry, Pectobacterium parmentieri SCC3193 assay: DuctApe activity index of N[C@@H](CCC(=O)O)C(=O)O = ?
1 (inactive)

Notebook entry, Pectobacterium parmentieri SCC3193 assay: DuctApe activity index of CCC(N)C(=O)O (racemic) = ?
1 (inactive)

Notebook entry, Pectobacterium parmentieri SCC3193 assay: DuctApe activity index of NC(=O)NC1NC(=O)NC1=O (stereo not drawn) = ?
0 (inactive)

----------
# System: Pectobacterium parmentieri SCC3193
# experimental.protocol: DuctApe activity index (growth/respiration on compound as sole nutrient source, blank-subtracted) (activity index (0-3)); higher = stronger utilization of the compound, active = 3 or more
# settings: nutrient role (plate category): nitrogen
Items are presented alongside their recorded DuctApe activity index.
Output: the number by itself.

Some solved entries appear below for comparison.
NCCCC(=O)O: 1
NCC(=O)N[C@@H](CC(N)=O)C(=O)O: 1
C[C@H](N)C(=O)NCC(=O)O: 0
O=c1cc[nH]c(=O)[nH]1: 0
CSCC[C@H](NC(=O)CN)C(=O)O: 0

Notebook entry, Pectobacterium parmentieri SCC3193 assay: DuctApe activity index of C[C@H](N)C(=O)N[C@H](C(=O)O)[C@@H](C)O = ?
0

Notebook entry, Pectobacterium parmentieri SCC3193 assay: DuctApe activity index of Nc1cc[nH]c(=O)n1 = ?
0

Notebook entry, Pectobacterium parmentieri SCC3193 assay: DuctApe activity index of CC(N)=O [Acetamide] = ?
0

Notebook entry, Pectobacterium parmentieri SCC3193 assay: DuctApe activity index of O=NO = ?
0

----------
# Test system: Pectobacterium parmentieri SCC3193
# experimental.protocol: DuctApe activity index (growth/respiration on compound as sole nutrient source, blank-subtracted) (activity index (0-3)); higher = stronger utilization of the compound, active = 3 or more
# settings: nutrient role (plate category): carbon
Items are presented alongside their recorded DuctApe activity index.

OC[C@H]1O[C@H](OC[C@H]2OC(O)[C@H](O)[C@@H](O)[C@@H]2O)[C@H](O)[C@@H](O)[C@H]1O (stereo partly specified): 3 (active)

Give the measured DuctApe activity index of O=C[C@@H](O)[C@H](O[C@@H]1O[C@H](CO)[C@H](O)[C@H](O)[C@H]1O)[C@H](O)CO .
1 (inactive)

Give the measured DuctApe activity index of O=C(O)Cc1ccc(O)cc1 [p-Hydroxyphenyl Acetic acid] .
0 (inactive)

Give the measured DuctApe activity index of O=C(O)CCC(=O)O .
3 (active)

Give the measured DuctApe activity index of O=CO .
2 (inactive)

Give the measured DuctApe activity index of O=C(O)[C@H]1OC(O)[C@H](O)[C@@H](O)[C@H]1O (stereo partly specified) .
3 (active)

----------
# Tested on: Pectobacterium parmentieri SCC3193
# experimental.protocol: DuctApe activity index (growth/respiration on compound as sole nutrient source, blank-subtracted) (activity index (0-3)); higher = stronger utilization of the compound, active = 3 or more
# settings: nutrient role (plate category): carbon
Reply using exactly one outcome from active, inactive

These solved cases illustrate the format of a correct answer.
NCC(=O)N1CCC[C@H]1C(=O)O: inactive
O=C(O)[C@@H]1CCCN1: inactive
N=C(N)NCCC[C@H](N)C(=O)O: inactive
C[C@@H](O)[C@H](O)[C@H](O)[C@@H](O)C=O: inactive
OC[C@@H](O)[C@@H](O[C@H]1O[C@H](CO)[C@@H](O)[C@H](O)[C@H]1O)[C@H](O)[C@@H](O)CO: inactive

From here, focus on the item given below.
What is the recorded call for this compound in the test? OC[C@H]1OC(O)[C@@H](O)[C@@H](O)[C@@H]1O (stereo partly specified)
active

----------
# Tested on: Pectobacterium parmentieri SCC3193
# experimental.protocol: DuctApe activity index (growth/respiration on compound as sole nutrient source, blank-subtracted) (activity index (0-3)); higher = stronger utilization of the compound, active = 3 or more
# settings: nutrient role (plate category): carbon
Items are presented alongside their recorded DuctApe activity index.
Output: the number by itself.

OC[C@H]1OC(O[C@H]2[C@H](O)[C@@H](O)C(O[C@H]3[C@H](O)[C@@H](O)[C@@H](O)O[C@@H]3CO)O[C@@H]2CO)[C@H](O)[C@@H](O)[C@@H]1O (some centres undefined): 0

Give the measured DuctApe activity index of OCC1OC(O)(CO)C(O)C1O (centres undefined) .
3

----------
Items are presented alongside their recorded DuctApe activity index.
# System: Pectobacterium parmentieri SCC3193
# experimental.protocol: DuctApe activity index (growth/respiration on compound as sole nutrient source, blank-subtracted) (activity index (0-3)); higher = stronger utilization of the compound, active = 3 or more
# settings: nutrient role (plate category): nitrogen
Output: the number by itself.

Some solved entries appear below for comparison.
Cc1c[nH]c(=O)[nH]c1=O: 0
NCC(=O)N[C@@H](CCC(N)=O)C(=O)O: 1

Could you now consider this next molecule?
Give the measured DuctApe activity index of NCCC[C@H](N)C(=O)O .
0

----------
Items are presented alongside their recorded DuctApe activity index.
# Tested on: Pectobacterium parmentieri SCC3193
# experimental.protocol: DuctApe activity index (growth/respiration on compound as sole nutrient source, blank-subtracted) (activity index (0-3)); higher = stronger utilization of the compound, active = 3 or more
# settings: nutrient role (plate category): phosphate & sulphur
Output: the number by itself.

Some solved entries appear below for comparison.
O=S1(=O)CCCC1: 0
N[C@H](CS)C(=O)O: 1
O=P(O)(O)OC[C@H]1OC(O)C[C@@H](O)[C@@H]1O (stereo partly drawn) [2-Deoxy-D-Glucose 6-Phosphate]: 1
O=C(O)C(CO)OP(=O)(O)O (centres undefined): 2
Nc1ccc(S(=O)(=O)O)cc1: 0

Give the measured DuctApe activity index of NC(=O)OP(=O)(O)O [Carbamyl Phosphate] .
1

Give the measured DuctApe activity index of Nc1ccn([C@@H]2O[C@H](COP(=O)(O)O)[C@@H](O)[C@H]2O)c(=O)n1 [Cytidine 5`-Monophosphate] .
1

Give the measured DuctApe activity index of Nc1ncnc2c1ncn2[C@@H]1O[C@@H]2COP(=O)(O)O[C@H]2[C@H]1O [Adenosine 3`,5`-Cyclic Monophosphate] .
0

Give the measured DuctApe activity index of Cc1cn([C@H]2C[C@H](OP(=O)(O)O)[C@@H](CO)O2)c(=O)[nH]c1=O [Thymidine 3`-Monophosphate] .
2

Give the measured DuctApe activity index of O=P(O)(O)O[C@H]1O[C@H](CO)[C@@H](O)[C@H](O)[C@H]1O [D-Glucose-1-Phosphate] .
1

Give the measured DuctApe activity index of NCCOP(=O)(O)O .
1

Give the measured DuctApe activity index of N[C@H](COP(=O)(O)O)C(=O)O .
2

Give the measured DuctApe activity index of N[C@@H]1[C@@H](O)[C@H](O)[C@@H](COP(=O)(O)O)O[C@@H]1O [D-Glucosamine-6-Phosphate] .
2

----------
# Tested on: Pectobacterium parmentieri SCC3193
# experimental.protocol: DuctApe activity index (growth/respiration on compound as sole nutrient source, blank-subtracted) (activity index (0-3)); higher = stronger utilization of the compound, active = 3 or more
# settings: nutrient role (plate category): nitrogen
Items are presented alongside their recorded DuctApe activity index.
Output: the number by itself.

Some solved entries appear below for comparison.
Cc1cn([C@H]2C[C@H](O)[C@@H](CO)O2)c(=O)[nH]c1=O: 0
CCCCCN: 0

Give the measured DuctApe activity index of NCC(=O)N[C@@H](CCC(=O)O)C(=O)O .
1

Give the measured DuctApe activity index of N[C@@H](Cc1c[nH]c2ccccc12)C(=O)O .
1

Give the measured DuctApe activity index of CCCCN .
0

Give the measured DuctApe activity index of C[C@@H](O)[C@H](N)C(=O)O .
0

----------
# Test system: Pectobacterium parmentieri SCC3193
# experimental.protocol: DuctApe activity index (growth/respiration on compound as sole nutrient source, blank-subtracted) (activity index (0-3)); higher = stronger utilization of the compound, active = 3 or more
# settings: nutrient role (plate category): carbon
Items are presented alongside their recorded DuctApe activity index.

Give the measured DuctApe activity index of O=c1[nH]cnc2c1ncn2[C@@H]1O[C@H](CO)[C@@H](O)[C@H]1O .
1 (inactive)

Give the measured DuctApe activity index of O=C(O)[C@@H](O)[C@H](O)C(=O)O .
0 (inactive)

Give the measured DuctApe activity index of OC[C@H]1O[C@@H](O[C@H]2[C@H](O)[C@@H](O)[C@H](O[C@H]3[C@H](O)[C@H](O)[C@H](O[C@@H]4[C@H](O)[C@H](O)[C@H](O)O[C@@H]4CO)O[C@@H]3CO)O[C@@H]2CO)[C@@H](O)[C@@H](O)[C@@H]1O .
0 (inactive)

Give the measured DuctApe activity index of OC[C@@]12OC[C@@H](O1)[C@@H](O)[C@@H](O)[C@@H]2O .
0 (inactive)
